Where do these numbers come from? They come from patent US11464770B2.

// reported pIC50 per item
# Tested on: lung cancer cell lines (e.g. NCI-H23, NCI-H1229)
# test-protocol: Cell based assay, cell viability (CellTiter-Glo), lung cancer cell lines
# experimental-setup: Homo sapiens; NCI-H522 cells; 72 hours treatment; CellTiter-Glo; read-out: IC50, lung cancer cell line NCI-H522
pIC50: −log10 of the molar value.

Task: Given CC(=O)c1c([S+]([O-])Cc2ccccc2)nc2c(Br)ccc(Cl)c2c1O (centres unmarked) , respond with its pIC50.
Result: < 5.70

Task: Given Cc1cc(C[S+]([O-])c2[nH]c3c(Cl)ccc(Cl)c3c(=O)c2C(=O)C(C)C)no1 (centres unmarked) , respond with its pIC50.
Result: 5.96

Task: Given CSc1[nH]c2c(Br)ccc(Cl)c2c(=O)c1C(C)=O , respond with its pIC50.
Result: < 5.70

Task: Given CC(=O)c1c([S+]([O-])Cc2ccc(C(C)(C)C)cc2)[nH]c2c(Br)ccc(Cl)c2c1=O (centres unmarked) , respond with its pIC50.
Result: < 5.70

Task: Given CC(=O)c1c([S+](C)[O-])n(Cc2ccc(F)c(Cl)c2)c2c(Br)ccc(Cl)c2c1=O (centres unmarked) , respond with its pIC50.
Result: < 5.70

Task: Given CC(=O)c1c(SCc2cccc(F)c2)[nH]c2c(Br)ccc(Cl)c2c1=O , respond with its pIC50.
Result: < 5.70

Task: Given CC(=O)c1c([S+]([O-])Cc2ccc(OC(F)(F)F)cc2)[nH]c2c(Br)ccc(Cl)c2c1=O (centres unmarked) , respond with its pIC50.
Result: < 5.70

Task: Given CC(=O)c1c([S+](C)[O-])n(S(=O)(=O)C(F)(F)F)c2c(Br)ccc(Cl)c2c1=O (centres unmarked) , respond with its pIC50.
Result: < 5.70

* * *

# System: colorectal cancer cell lines (e.g. DLD-1, HCT 116, SW620, HCT-15, HCT-8, RKO)
# test-protocol: Cell based assay, cell viability (CellTiter-Glo), colorectal cancer cell lines
# experimental-setup: Homo sapiens, HCT-8, 72 hours treatment, read-out: IC50, colorectal cancer cell line HCT-8
// reported IC50 per item

For orientation, consider the following solved cases.
[
  {
    "compound": "CC(=O)c1c([S+](C)[O-])[nH]c2c(Cl)ccc(Cl)c2c1=O (centres unmarked) [Compound 6]",
    "system-under-test": "colorectal cancer cell lines (e.g. DLD-1, HCT 116, SW620, HCT-15, HCT-8, RKO)",
    "IC50": "> 2000 nM"
  },
  {
    "compound": "CC(=O)c1c(SCc2cc(Cl)ccc2Cl)[nH]c2c(Br)ccc(Cl)c2c1=O [Compound 43]",
    "system-under-test": "colorectal cancer cell lines (e.g. DLD-1, HCT 116, SW620, HCT-15, HCT-8, RKO)",
    "IC50": "> 2000 nM"
  },
  {
    "compound": "CC(=O)c1c(SCc2ccc(F)c(Cl)c2)[nH]c2c(Br)ccc(Cl)c2c1=O [Compound 30]",
    "system-under-test": "colorectal cancer cell lines (e.g. DLD-1, HCT 116, SW620, HCT-15, HCT-8, RKO)",
    "IC50": "> 2000 nM"
  }
]

Task: # return IC50 of CC(=O)c1c(SCc2ccccc2)nc2c(Br)ccc(Cl)c2c1O [Compound 52] (system: colorectal cancer cell lines (e.g. DLD-1, HCT 116, SW620, HCT-15, HCT-8, RKO))
Result: > 2000 nM

Task: # return IC50 of CC(=O)c1c([S+]([O-])Cc2cc(F)cc(F)c2)[nH]c2c(Br)ccc(Cl)c2c1=O (centres unmarked) [Compound 46] (system: colorectal cancer cell lines (e.g. DLD-1, HCT 116, SW620, HCT-15, HCT-8, RKO))
Result: > 2000 nM

Task: # return IC50 of CC(=O)c1c([S+]([O-])Cc2cc(Cl)ccc2Cl)[nH]c2c(Br)ccc(Cl)c2c1=O (centres unmarked) [Compound 44] (system: colorectal cancer cell lines (e.g. DLD-1, HCT 116, SW620, HCT-15, HCT-8, RKO))
Result: 1660 nM

Task: # return IC50 of CC(=O)c1c([S+]([O-])Cc2cccc(F)c2)[nH]c2c(Br)ccc(Cl)c2c1=O (centres unmarked) [Compound 50] (system: colorectal cancer cell lines (e.g. DLD-1, HCT 116, SW620, HCT-15, HCT-8, RKO))
Result: 1990 nM

Task: # return IC50 of CC(=O)c1c([S+]([O-])Cc2cc(F)cc(S(F)(F)(F)(F)F)c2)[nH]c2c(Br)ccc(Cl)c2c1=O (centres unmarked) [Compound 76] (system: colorectal cancer cell lines (e.g. DLD-1, HCT 116, SW620, HCT-15, HCT-8, RKO))
Result: > 2000 nM
